- target_of_assay: human GLP-1 receptor (GLP1R) (human, UniProt P43220 24-463)
- experimental_protocol: cell-based or functional assay
Numbered stars: 1 amine (or outer) side, 2 acyl side, 3 side chain; on linkers, the order of the positions; unused ones are H or OH. Square brackets hold non-standard residues; d marks the D form. Primed or numbered codes have the meaning given here. Side chains are listed from the residue outwards. Ends that are not written are not given here. * marks the point of attachment. Phe(4-CH2NH2) = NCc1ccc(C[C@H](N)C(=O)O)cc1; C16 diacid = O=C(O)CCCCCCCCCCCCCCC(=O)*; γGlu = O=C(O)[C@H](CCC(=O)[*:2])N[*:1]; Met(O2) = CS(=O)(=O)CC[C@H](N)C(=O)O; PEG2′ = not defined here; AEEA = NCCOCCOCC(=O)O; Aib = CC(C)(N)C(=O)O
readout_label: GLP1R EC50 human (pM)
Field: numeric (pM). Do not append units.

binder	reported_value
H[αMS]QGTFTSDYSKYLD[Aib]RAAQK([PEG2′-PEG2′-γGlu-C16 diacid])FVQWL[Met(O2)][αMD]T-NH2 [TP619]	380
H[Aib]QGTFTSDYSKYLD[Aib]RAAK([AEEA-AEEA-γGlu-C16 diacid])DFVQWLLATK-{γGlu-NH2} [TP662]	520
HXQGTFTSDXSKYLDARAAQDFVQWLLDT (D-Ser (s) at 2; Nle(1,2,3-triazole-4-γE-C16) at 10; C-terminal amide) [TP830]	220

Here's the next entry for you.
INPUT: Input H[Aib]QGTFTSD[Phe(4-CH2NH2)]([AEEA-AEEA-γGlu-C16 diacid])SKYLD[Aib]RAAQDFVQWL[Met(O2)]ATK-{γGlu-NH2} [TP658] , output reported GLP1R EC50 human.
OUTPUT: 1660
